- Tested on: Klebsiella pneumoniae NCTC 13443 strain producing NDM-1, SHV and TEM beta-lactamase enzymes
- assay procedure: Time kill study against K. pneumoniae NCTC 13443
- Format: cell-based
- condition details: 6 hours; each agent at 4 mcg/ml, alone or in combination
readout: Bacterial count (Log10CFU/ml) 6 hours
Provide only the numeric value, understood in Log10CFU/ml.

Answered examples (5):
{"molecule": "O=C1N2C[C@@H](CC[C@H]2c2nnc(CC3CNC3)o2)N1OS(=O)(=O)O [Compound D]", "readout": "Bacterial count (Log10CFU/ml) 6 hours", "recorded number": 8.95}
{"molecule": "C[C@@H](O)[C@H]1C(=O)N2C(C(=O)O)=C(SCCN=CN)C[C@H]12 [Imipenem, reference compound]", "readout": "Bacterial count (Log10CFU/ml) 6 hours", "recorded number": 8.88}
{"molecule": "C[C@H]1[C@H](NC(=O)/C(=N\\OC(C)(C)C(=O)O)c2csc(N)n2)C(=O)N1S(=O)(=O)O [Aztreonam, reference compound]", "readout": "Bacterial count (Log10CFU/ml) 6 hours", "recorded number": 9.02}
{"molecule": "C[C@H](N)c1nnc([C@@H]2CC[C@@H]3CN2C(=O)N3OS(=O)(=O)O)o1 [Compound I]", "readout": "Bacterial count (Log10CFU/ml) 6 hours", "recorded number": 8.9}
{"molecule": "O=C(NNC(=O)[C@@H]1CC[C@@H]2CN1C(=O)N2OS(=O)(=O)O)[C@@H]1CCCNC1 [Compound E]", "readout": "Bacterial count (Log10CFU/ml) 6 hours", "recorded number": 8.8}

Given the molecule O=C1N2C[C@@H](CC[C@H]2c2nnc(C3CCNCC3)o2)N1OS(=O)(=O)O [Compound C] , what is its reported Bacterial count (Log10CFU/ml) 6 hours? 9

Given the molecule N#C[C@@H]1CC[C@@H]2CN1C(=O)N2OS(=O)(=O)[O-].[Na+] [Compound A] , what is its reported Bacterial count (Log10CFU/ml) 6 hours? 8.8

Given the molecule NC(=O)c1nnc([C@@H]2CC[C@@H]3CN2C(=O)N3OS(=O)(=O)O)o1 [Compound B] , what is its reported Bacterial count (Log10CFU/ml) 6 hours? 8.8

* * *

- System: Klebsiella pneumoniae B 88 strain producing NDM-1, SHV, TEM and CTXM beta-lactamase enzymes
- assay procedure: Time kill study against K. pneumoniae B 88
- Assay type: cell-based
- condition details: 4 hours; each agent at 4 mcg/ml, alone or in combination
readout: Bacterial count (Log10CFU/ml) 4 hours
Provide only the numeric value, understood in Log10CFU/ml.

Answered examples (2):
{"compound": "O=C(NOC[C@@H]1CCCN1)[C@@H]1CC[C@@H]2CN1C(=O)N2OS(=O)(=O)O [Compound F]", "Bacterial count (Log10CFU/ml) 4 hours": 8.2}
{"compound": "C[C@H](N)c1nnc([C@@H]2CC[C@@H]3CN2C(=O)N3OS(=O)(=O)O)o1 [Compound I]", "Bacterial count (Log10CFU/ml) 4 hours": 8.79}

Given the compound O=C(NNC(=O)[C@@H]1CC[C@@H]2CN1C(=O)N2OS(=O)(=O)O)[C@@H]1CCCNC1 [Compound E] , what is its reported Bacterial count (Log10CFU/ml) 4 hours? 8.3

Given the compound O=C1N2C[C@@H](CC[C@H]2c2nnc([C@@H]3CCCN3)o2)N1OS(=O)(=O)O [Compound J] , what is its reported Bacterial count (Log10CFU/ml) 4 hours? 8.5

* * *

Measured Bacterial count (Log10CFU/ml) 6 hours accompanies every entry in the list below.
- Test system: Klebsiella pneumoniae NCTC 13443 strain producing NDM-1, SHV and TEM beta-lactamase enzymes
- assay procedure: Time kill study against K. pneumoniae NCTC 13443
- Format: cell-based
- condition details: 6 hours; each agent at 4 mcg/ml, alone or in combination
Remember to follow the number with its unit.

{"test smiles": "O=C(NOC[C@@H]1CCCCN1)[C@@H]1CC[C@@H]2CN1C(=O)N2OS(=O)(=O)O", "result": "8.9 Log10CFU/ml"}
{"test smiles": "O=C1N2C[C@@H](CC[C@H]2c2nnc([C@@H]3CCCN3)o2)N1OS(=O)(=O)O", "result": "8.8 Log10CFU/ml"}
{"test smiles": "O=C(NNC(=O)[C@@H]1CC[C@@H]2CN1C(=O)N2OS(=O)(=O)O)[C@@H]1CCNC1", "result": "8.9 Log10CFU/ml"}

Attention now shifts to the item below.
Given the compound O=C(NOC[C@@H]1CCCN1)[C@@H]1CC[C@@H]2CN1C(=O)N2OS(=O)(=O)O , what is its reported Bacterial count (Log10CFU/ml) 6 hours? 8.9 Log10CFU/ml

Ref: patent US10857138B2
